This collection of values is drawn from the Deep4Chem optical property database.

# PROTOCOL_SUMMARY: solvent given as SMILES
# ASSAY_SETUP: in CC(C)=O
PARAMETER: emission maximum

Solved cases (6 shown):
| MOLECULE | RESULT |
| --- | --- |
| CC(C)(C)NC1=C2C=CC=[N+]2[B-](F)(F)n2cccc21 | 492 nm |
| O=S(=O)([O-])c1ccc(/C=C/c2ccc(-c3nnc(-c4ccc(/C=C/c5ccc(S(=O)(=O)[O-])cc5S(=O)(=O)[O-])cc4)o3)cc2)c(S(=O)(=O)[O-])c1 | 415 nm |
| COc1ccc(/C=C/c2cc(/C=C/c3ccc(OC)cc3)nc(/C=C/c3ccc(C(F)(F)F)cc3)n2)cc1 | 452 nm |
| CN(c1ccccc1)c1ccc(/C=C2\C(=O)c3ccccc3S2(=O)=O)cc1 | 537 nm |
| CCC1(CC)c2cc(B(c3c(C)cc(C)cc3C)c3c(C)cc(C)cc3C)ccc2-c2c1c1c(c3c2C(CC)(CC)c2cc(B(c4c(C)cc(C)cc4C)c4c(C)cc(C)cc4C)ccc2-3)C(CC)(CC)c2cc(B(c3c(C)cc(C)cc3C)c3c(C)cc(C)cc3C)ccc2-1 | 396 nm |
| CSC1=C2C=C(c3cc4n(c3)[B-](F)(F)[N+]3=CC=CC3=C4c3c(C)cc(C)cc3C)C(C)=[N+]2[B-](F)(F)n2c(C)ccc21 | 694 nm |

Please report the recorded emission maximum for [C-]#[N+]c1ccc(-c2ccc(NC)cc2)cc1 .
427 nm

// next record COC(=O)C(Cc1ccc2oc(-c3ccc(N(c4ccccc4)c4ccccc4)cc3)nc2c1)NC(=O)OC(C)(C)C (stereo unspecified)
456.17 nm

// next record Cc1cc(C)c(B(c2ccc(-c3ccc(-c4nc5c6ccccc6c6ccccc6c5[nH]4)cc3)cc2)c2c(C)cc(C)cc2C)c(C)c1
493 nm

// next record CN(C)c1ccc(C2=Nc3sc4cc(Cl)ccc4[n+]3[B-](F)(F)O2)cc1
488 nm

// next record CCC1=C(C)C2=C(C)c3cccn3[B-](F)(F)[N+]2=C1C
512.5 nm

// next record COc1cc(OC)cc(C2=[O+][B-](F)(F)OC(c3ccc4cc(OC)ccc4c3)=C2)c1
533.32 nm

// next record [C-]#[N+]c1ccc(-c2ccc(N)cc2)cc1
407 nm

// next record COc1cc(OC)cc(C2=[O+][B-](F)(F)OC(c3ccc4ccccc4c3)=C2)c1
521.21 nm

// next record CN(C)c1ccc(/C=C/C=C/c2nc3ccccc3s2)cc1
557 nm

// next record FC(F)(F)c1ccc(/C=C/c2nc(/C=C/c3ccc(N(c4ccccc4)c4ccccc4)cc3)cc(/C=C/c3ccc(N(c4ccccc4)c4ccccc4)cc3)n2)cc1
567 nm

====

# PROTOCOL_SUMMARY: solvent given as SMILES
# ASSAY_SETUP: in ClCCl
Decide by emission maximum: equal to or exceeding 500 nm means label 1, less means label 0.

Use these answered entries as a reference point.
| COMPOUND_STRING | ASSIGNED_LABEL |
| --- | --- |
| C(#Cc1nc(C#Cc2ccccc2)c(C#Cc2ccccc2)c(C#Cc2ccccc2)c1C#Cc1ccccc1)c1ccccc1 | label 0 |
| CC(=O)c1c2c(cc3c(N(C)C)cccc13)CCC2 | label 1 |
| FC(F)(F)c1ccc(/C=C/c2nc(/C=C/c3ccc(N(c4ccccc4)c4ccccc4)cc3)cc(/C=C/c3ccc(N(c4ccccc4)c4ccccc4)cc3)n2)cc1 | label 1 |

# check: emission maximum of O=C1c2cc3ccccc3cc2C2=Nc3cccc[n+]3[B-](F)(F)N12 is greater than or equal to 500 nm
label 0

// next record N#Cc1nc2cnc(N)nc2n1Cc1ccccc1
label 0

// next record CC1=C(c2ccccc2)C(C)=[N+]2C1=C(c1c(-c3ccccn3)nc3ccccn13)c1c(C)cc(C)n1[B-]2(F)F
label 1

// next record CCN(CC)c1ccc2c(-c3ccccc3C(=O)O)c3c([o+]c2c1)/C(=C/c1ccc(N2CCCC2)s1)CCC3
label 1

// next record COc1cc2c(cc1OC)C1=C[C@H](c3ccccc3)C3(C(C(=O)O[C@@H]4C[C@H]5CC[C@@H]4C5)=C(C(=O)O[C@H]4C[C@@H]5CC[C@H]4C5)N1CC2)c1ccccc1-c1ccccc13
label 0

// next record CC1=C2C=CC(c3ccccc3)=[N+]2[B-](F)(F)n2c1ccc2-c1ccccc1
label 1

// next record CCOC(=O)c1c(-c2cc3cc4c(cc3oc2=O)OC(C)(C)CC4)nn(-c2ccccc2)c1C(=O)OCC
label 0

// next record CCN1c2ccc(-c3cc(C(F)(F)F)[nH]n3)cc2Sc2cc(-c3cc(C(F)(F)F)[nH]n3)ccc21
label 0

====

# PROTOCOL_SUMMARY: solvent given as SMILES
# ASSAY_SETUP: in CC#N
Decide by emission maximum: equal to or exceeding 500 nm means Met, less means Not met.

Use these answered entries as a reference point.
| COMPOUND | ASSIGNED_LABEL |
| --- | --- |
| CC1CC=C(c2ccc(-c3cccs3)s2)CC1 (stereo unspecified) | Not met |
| CN(C)c1ccc(-c2nc3ccccc3n2-c2ccccc2)cc1 | Not met |
| CC(C)CCCN1c2ccccc2CCc2ccccc21 | Not met |

# check: emission maximum of CC(=O)c1c2c(cc3c(N(C)C)cccc13)CCC2 is greater than or equal to 500 nm
Met

// next record CCN(CC)c1ccc(OC)c(C=O)c1
Met

// next record O=C1Nc2ccccc2/C1=C/C(=O)c1ccccc1
Not met

// next record NS(=O)(=O)c1ccc(N2N=C(c3ccc(O)cc3)CC2c2ccc([N+](=O)[O-])cc2)cc1 (stereo unspecified)
Not met

// next record O=C1C(=c2c(=O)c3c4ccccc4cc4cc5ccccc5c2c43)C(=O)c2ccccc21
Met

// next record CCN(CC)c1ccc2c(C#N)c(/C=C(\C#N)c3nc4ccccc4s3)c(=O)oc2c1
Met

// next record CCC1=C(C)C2=Cc3c4ccccc4c4n3[B-](C)(Oc3ccccc3-4)[N+]2=C1C (stereo unspecified)
Met

// next record C[Si](C)(c1ccc2cc3ccccc3cc2c1)[Si](C)(C)c1ccc2cc3ccccc3cc2c1
Not met

// next record CC1(C)CC(=O)c2c(F)c(C(F)(F)F)c(F)c(F)c2N1
Not met

// next record c1ccc2c(c1)CCc1c-2cnc2c1-c1ccccc1CC2
Not met

// next record CCC1=C(C)C2=Cc3c4ccccc4c4n3[B-](c3ccc5cc6ccccc6cc5c3)(Oc3ccccc3-4)[N+]2=C1C (stereo unspecified)
Met

// next record COc1cc(OC)c2c(c1)C(=O)c1ccccc1-2
Met

// next record c1ccc2c(c1)ncc1ccc3cnc4ccccc4c3c12
Not met

// next record COc1ccc(/C=C/C(=O)c2ccccc2O)cc1OC
Not met

// next record c1ccc(N(c2ccccc2)c2ccc(-c3nc4ccccc4n3-c3ccccc3)cc2)cc1
Not met

// next record COc1ccccc1-n1nc(C#N)c(N2CCCC2)n1
Not met

====

# PROTOCOL_SUMMARY: solvent given as SMILES
# ASSAY_SETUP: in O
PARAMETER: emission maximum (nm)
Reply numerically in nm, unit not repeated.

Solved cases (3 shown):
| COMPOUND | RECORDED_NUMBER |
| --- | --- |
| CC[N+](CC)=c1ccc2nc3c(cc(NCCC(=O)NC(C)C(=O)OC)c4ccccc43)oc-2c1 (centres undefined) | 684 |
| Nc1nc2ccc(F)cc2[n+]([O-])n1 | 526 |
| CC[N+]1(CC)CN2C(=N1)C(C(=O)O)=Cc1ccc(C)cc12 | 457 |

Please report the recorded emission maximum for Nc1ccc2c(c1)C(=O)NC2=O .
540

// next record Nc1cc(N)cc(-c2nc3ccccc3s2)c1
541

====

# PROTOCOL_SUMMARY: solvent given as SMILES
# ASSAY_SETUP: in CCCCCO
// reported emission maximum per item
Reply numerically in nm, unit not repeated.

Solved cases (3 shown):
| COMPOUND | RECORDED_NUMBER |
| --- | --- |
| COC(=O)C(Cc1ccc2oc(-c3ccc(-n4c5ccccc5c5ccccc54)cc3)nc2c1)NC(=O)OC(C)(C)C (centres undefined) | 409 |
| CN(C)c1ccc(/C=C/c2ccc(-c3nnc(-c4ccc(-c5cc6ccccc6s5)cc4)o3)cc2)cc1 | 399 |
| O=C(O)c1c2ccccc2nc2ccccc12 | 422 |

Now look at this entry.
Please report the recorded emission maximum for COC(=O)C(Cc1ccc2oc(-c3ccc(N(c4ccccc4)c4ccccc4)cc3)nc2c1)NC(=O)OC(C)(C)C (centres undefined) .
454.75

====

// reported emission maximum per item
# PROTOCOL_SUMMARY: solvent given as SMILES
# ASSAY_SETUP: in ClCCl
Reply numerically in nm, unit not repeated.

Solved cases (6 shown):
| MOLECULE | RECORDED_NUMBER |
| --- | --- |
| Cc1ccc(/C(C#N)=C/c2cc(/C=C(\C#N)c3ccc(C)cc3)c(-c3ccc(N(c4ccccc4)c4ccccc4)cc3)cc2-c2ccc(N(c3ccccc3)c3ccccc3)cc2)cc1 | 552 |
| N#CC(C#N)=Cc1ccc(-c2ccc(-c3nc4ccccc4s3)c(O)c2)o1 | 502 |
| CCCCCCCCCCC1(CCCCCCCCCC)c2cc(-c3nc4ccccc4s3)ccc2-c2ccc(N3C(=O)c4ccc5c6ccc7c8c(ccc(c9ccc(c4c59)C3=O)c86)C(=O)N(c3ccc4c(c3)C(CCCCCCCCCC)(CCCCCCCCCC)c3cc(-c5nc6ccccc6s5)ccc3-4)C7=O)cc21 | 533 |
| CCCCC(CC)COc1ccc2nc(-c3ccc(-c4c(C)noc4C)s3)sc2c1 (stereo not given) | 415 |
| C1=Cc2ccc(N(c3ccccc3)c3cccc4ccccc34)cc2C2(c3cc(N(c4ccccc4)c4cccc5ccccc45)ccc31)c1ccccc1-c1ccccc12 | 454 |
| c1ccc(N(c2ccccc2)c2ccc(-c3cccc4nc5ccccc5cc34)cc2)cc1 | 555 |

Please report the recorded emission maximum for CN(C)c1ccc(/C=C/C=C/c2nc3ccccc3s2)cc1 .
533

// next record CCCCCCN(CCCCCC)c1ccc(C#Cc2c(F)c(F)c(F)c(F)c2F)cc1
502

// next record c1ccc(-c2csc(-c3ccncc3)n2)cc1
472

// next record COc1ccc(Oc2ccc3c4c(cccc24)C(=O)N(c2c(C(C)C)cccc2C(C)C)C3=O)cc1
434

// next record CCCCCC(CC)C1(C(CC)CCCCC)c2ccccc2-c2ccc(C#Cc3cc(C#Cc4ccc5c(c4)C(C(CC)CCCCC)(C(CC)CCCCC)c4ccccc4-5)c4ccc5c(C#Cc6ccc7c(c6)C(C(CC)CCCCC)(C(CC)CCCCC)c6ccccc6-7)cc(C#Cc6ccc7c(c6)C(C(CC)CCCCC)(C(CC)CCCCC)c6ccccc6-7)c6ccc3c4c65)cc21 (stereo not given)
514

// next record C(S/C=C/c1ccc(-c2ccc(/C=C/SC=C(c3ccccc3)c3ccccc3)cc2)cc1)=C(c1ccccc1)c1ccccc1
441

// next record CCc1c(C)c2n(c1C)[B-](F)(F)[N+]1=C(c3ccc[nH]3)c3ccccc3C1=C2C
629

// next record c1ccc(B2Nc3cc4c(cc3-c3sccc32)NB(c2ccccc2)c2ccsc2-4)cc1
412

// next record c1ccc(-n2c3ccccc3c3cc([Si](c4ccccc4)(c4ccccc4)c4ccc5c(c4)c4ccccc4n5-c4ccccc4)ccc32)cc1
350

// next record COC(=O)C1=C(C(=O)OC)C2(c3cc(Cl)ccc3-c3c(Cl)cc(Cl)cc32)C2(/C=C/c3ccccc3)c3cc(OC)c(OC)cc3CCN12 (stereo not given)
487

// next record CCC1=C(C)C2=C(/C=C/c3ccc(OC)cc3)c3c(C)c(CC)c(C)n3[B-](F)(F)[N+]2=C1C
542

// next record CN(C)c1ccc(/C=C/c2nc3ccc(Br)cc3nc2-c2ccccc2)cc1
602

// next record CCCCCCCC(=O)Oc1ccc2c3cccc4c(OC(=O)CCCCCCC)ccc(c5cccc1c52)c43
455

// next record CC1=C(c2ccc(N(C)C)cc2)C(C)=[N+]2C1=C(c1c(-c3ccccn3)nc3ccccn13)c1c(C)cc(C)n1[B-]2(F)F
524

// next record CC(=O)c1ccc(C#Cc2ccc(-c3cc(N(C)C)c4ccccc4c3)cc2)cc1
458

// next record C#Cc1ccc2ccc3cccc4ccc1c2c34
384
